Origin of the recorded values: PubChem BioAssay AID2060907

- Test system: 388556-164-R-J1-PDC complex spheroid viability;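 note: spheroids exposed to compound for 7 days before readout; 100% = DMSO vehicle control luminescence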
- test.protocol: Anticancer human tumor 388556-164-R-J1-PDC patient-derived colon adenocarcinoma cell line growth inhibition [RAS]
- condition.parameters: second compound 0.000949 µM; first compound 1 µM; stronger effect = lower value
Recorded viability, T/C values for a group of compounds are listed next.
assay.metric: viability, T/C (%)

1. C[C@@H](NC(=O)c1ncnc(N)c1Cl)c1ncc(C(=O)Nc2cc(C(F)(F)F)c(Cl)cn2)s1 + CCn1c(-c2cc(N3CCN(C)CC3)cnc2C(C)OC)c2c3cc(ccc31)-c1csc(n1)CC(NC(=O)C1CC1C)C(=O)N1CCCC(N1)C(=O)OCC(C)(C)C2
117
2. Cc1nc(N2CCC3(CC2)COC(C)C3N)c(CO)nc1Sc1ccnc(N)c1Cl (centres undefined) + CCn1c(-c2cc(N3CCN(C)CC3)cnc2C(C)OC)c2c3cc(ccc31)-c1csc(n1)CC(NC(=O)C1CC1C)C(=O)N1CCCC(N1)C(=O)OCC(C)(C)C2
47.5
3. CC1(O)CCCC1n1c(=O)c(C(F)F)cc2cnc(NC3CCN(S(C)(=O)=O)CC3)nc21 (centres undefined) + CCn1c(-c2cc(N3CCN(C)CC3)cnc2C(C)OC)c2c3cc(ccc31)-c1csc(n1)CC(NC(=O)C1CC1C)C(=O)N1CCCC(N1)C(=O)OCC(C)(C)C2
91.6
4. C=CC(=O)Nc1cc(Nc2nccc(-c3cn(C)c4ccccc34)n2)c(OC)cc1N(C)CCN(C)C + CCn1c(-c2cccnc2C(C)OC)c2c3cc(ccc31)N1CCOC(CC(NC(=O)C(C(C)C)N(C)C(=O)C3(F)CCN(C(=O)C#CC(C)(C)N(C)C)CC3)C(=O)N3CCCC(N3)C(=O)OCC(C)(C)C2)C1
53.4
